- SYSTEM: REV-ERBα LBD (human; residues 281-614 Δ324-422) (Homo sapiens, UniProt P20393, DEL324-422)
- Construct: 6×Histag-REV-ERBα LBD (human; residues 281-614 Δ324-422); made in house; host or cells: Escherichia coli
- Sequence (P20393 with tags, fused parts or gaps DEL324-422): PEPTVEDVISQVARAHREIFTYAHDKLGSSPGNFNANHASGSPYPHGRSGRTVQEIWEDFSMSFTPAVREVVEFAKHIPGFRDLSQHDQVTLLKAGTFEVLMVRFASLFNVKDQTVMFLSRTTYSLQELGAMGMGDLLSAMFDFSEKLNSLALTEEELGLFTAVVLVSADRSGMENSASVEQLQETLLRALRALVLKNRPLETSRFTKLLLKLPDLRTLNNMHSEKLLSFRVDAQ
- Sequence (Q9Y618 2335-2356 partner limits assumed): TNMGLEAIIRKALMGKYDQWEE
- EXPERIMENT: TR-FRET corepressor interaction assay (REV-ERBα LBD, FITC-SMRT peptide)
- Assay type: biochemical
- PROTOCOL CONDITIONS: Table 2, read-out: REVERBα agonism (EC50 class, FRET assay)
pEC50: −log10 of the molar value.
MEASUREMENT NAME: pEC50

CC(C)Cn1cc(C(NS(=O)(=O)N(C)C)C(F)(F)F)c2ccc(-c3ccccc3C(F)(F)F)cc21 (centres unmarked)	> 6.30
CC(C)(C)Cn1cc([C@H](NS(=O)(=O)C2CC2)C(F)(F)F)c2cc(F)c(-c3ccccc3)cc21	5.52 to 6.30
CC(C)Cn1cc([C@H](NS(=O)(=O)N(C)C)C(F)(F)F)c2ccc(C(C)C)cc21	> 6.30
CC(C)(C)Cc1cn(CCNS(=O)(=O)C2CC2)c2ccc(-c3cccnc3)cc12	5.52 to 6.30

CC(C)Cn1cc([C@H](NS(=O)(=O)N(C)C)C(F)(F)F)c2cc(F)c(-c3ccccc3Cl)cc21 yielded pEC50 of > 6.30

CC(C)(C)Cc1cn(CCNS(=O)(=O)C2CC2)c2ccc(-c3ccccc3C(F)(F)F)cc12 yielded pEC50 of > 6.30

CC(C)Cn1cc(CC(C)NS(=O)(=O)C(C)C)c2ccc(-c3ccncc3)cc21 (centres unmarked) yielded pEC50 of 5.52 to 6.30

CC(C)(C)Cn1cc([C@H](NS(=O)(=O)C2CCC2)C(F)(F)F)c2ccc(-c3c(F)cccc3Cl)cc21 yielded pEC50 of > 6.30

CN(C)S(=O)(=O)NCc1cn(C(=O)C(C)(C)C)c2cc(-c3ccncc3)ccc12 yielded pEC50 of 5.52 to 6.30

CC(C)(C)Cc1cn(CCNS(=O)(=O)C2CC2)c2ccc(C(F)(F)F)cc12 yielded pEC50 of 5.52 to 6.30

CC(C)C(=O)n1cc(CCNS(=O)(=O)N(C)C)c2ccc(-c3ccncc3)cc21 yielded pEC50 of > 6.30

The reported measurements were obtained from patent US20230339886A1.
